- TARGET: D-amino-acid oxidase (Homo sapiens, UniProt P14920)
- Sequence (P14920 whole entry): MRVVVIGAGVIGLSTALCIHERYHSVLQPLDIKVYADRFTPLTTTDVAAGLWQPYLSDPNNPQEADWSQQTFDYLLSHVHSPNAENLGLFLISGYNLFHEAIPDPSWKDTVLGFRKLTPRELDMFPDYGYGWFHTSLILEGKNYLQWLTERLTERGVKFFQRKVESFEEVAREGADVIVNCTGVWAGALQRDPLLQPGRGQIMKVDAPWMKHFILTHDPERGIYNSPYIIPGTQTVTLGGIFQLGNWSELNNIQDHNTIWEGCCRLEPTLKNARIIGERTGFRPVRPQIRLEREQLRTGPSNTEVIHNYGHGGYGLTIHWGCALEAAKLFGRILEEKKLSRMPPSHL
- EXPERIMENTAL PROTOCOL: Inhibition of human recombinant N-terminal His-tagged DAO expressed in Escherichia coli BL21(DE3) using D-serine as substrate by colorimetric assay
ENDPOINT LABEL: IC50

Observe how each entry below is paired with its result.
* Nc1cncc(C(=O)O)c1 | > 2500 µM
* O=C(O)C(O)C(O)C(=O)O (stereo not drawn) | > 10000 µM
* NC[C@H](O)c1ccc(O)c(O)c1 [NOREPINEPHRINE] | > 10000 µM
* O=C(O)c1ccc[n+]([O-])c1 | > 2500 µM
* O=C(O)c1ccc2cccnc2n1 | > 10000 µM
* CNCC(=O)c1ccc(O)c(O)c1 | > 1000 µM
* Oc1nc(-c2ccccc2)no1 | > 5000 µM
* O=C(O)c1cc2c([nH]1)CCCC2 | > 100 µM
* O=C(O)CC(=O)O | > 10000 µM
* Oc1cc(-c2ccccc2)no1 | > 500 µM

The recorded IC50 for entry O=C(O)C1=CN2CCN=C2C=C1 equals > 1000 µM

The recorded IC50 for entry O=C(O)c1cn2ccccc2n1 equals > 2500 µM

The recorded IC50 for entry Nc1ccc(-c2nnc(O)o2)cc1 equals > 10000 µM
